Kindly state concentration at 12 h for each of the entries shown.
- Run Description: Pharmacokinetic analysis after ip administration in mice
- Type: in vivo
- Assay Setup: Swiss Webster, mouse, spleen, ip, 10 mg/kg
Answers are plain numbers, in µM.

# Line Notation, Readout Value
rows = [
    ("Clc1ccc(CNc2nc(NCc3ccccc3)c3ccccc3n2)cc1", 26.6),
]

I'd like to know its concentration at 12 h. The compound in question is `CC(C)Nc1nc(NCc2ccccc2)nc2ccccc12`
16.5
